Assay: cn = amount concentration of the nth substance listed, in mol/dm3
Settings: 308.65 K; 101 kPa; Liquid; c1 = 0.02
Attribute: mass density

[
  {
    "molecule": "[Cl-].c1ccc([P+](c2ccccc2)(c2ccccc2)c2ccccc2)cc1 [tetraphenylphosphonium chloride] + O",
    "valueUnits": "kg/m3",
    "mass density": 998.12
  },
  {
    "molecule": "[Cl-].c1ccc([P+](c2ccccc2)(c2ccccc2)c2ccccc2)cc1 [tetraphenylphosphonium chloride] + CCO",
    "valueUnits": "kg/m3",
    "mass density": 778.83
  },
  {
    "molecule": "[Cl-].c1ccc([P+](c2ccccc2)(c2ccccc2)c2ccccc2)cc1 [tetraphenylphosphonium chloride] + CC#N",
    "valueUnits": "kg/m3",
    "mass density": 772.35
  },
  {
    "molecule": "[Cl-].c1ccc([P+](c2ccccc2)(c2ccccc2)c2ccccc2)cc1 [tetraphenylphosphonium chloride] + CO",
    "valueUnits": "kg/m3",
    "mass density": 780.37
  }
]

====

Assay: cn = amount concentration of the nth substance listed, in mol/dm3
Conditions: 311.65 K; 101 kPa; Liquid; c1 = 0.1
± gives the expanded uncertainty stated by the source.
mass density listing for selected molecules.

[
  {
    "molecule": "[Cl-].c1ccc([P+](c2ccccc2)(c2ccccc2)c2ccccc2)cc1 [tetraphenylphosphonium chloride] + O",
    "mass density": "997.28 ± 0.53 kg/m3"
  },
  {
    "molecule": "[Cl-].c1ccc([P+](c2ccccc2)(c2ccccc2)c2ccccc2)cc1 [tetraphenylphosphonium chloride] + CC#N",
    "mass density": "780.77 ± 1.9 kg/m3"
  },
  {
    "molecule": "[Cl-].c1ccc([P+](c2ccccc2)(c2ccccc2)c2ccccc2)cc1 [tetraphenylphosphonium chloride] + CCO",
    "mass density": "789.98 ± 1.9 kg/m3"
  },
  {
    "molecule": "[Cl-].c1ccc([P+](c2ccccc2)(c2ccccc2)c2ccccc2)cc1 [tetraphenylphosphonium chloride] + CO",
    "mass density": "790.42 ± 1.9 kg/m3"
  }
]

====

Test: cn = amount concentration of the nth substance listed, in mol/dm3
Details: 311.65 K; 101 kPa; Liquid; c1 = 0.01
Reported mass density values for a set of molecules

[
  {
    "molecule": "[Cl-].c1ccc([P+](c2ccccc2)(c2ccccc2)c2ccccc2)cc1 [tetraphenylphosphonium chloride] + O",
    "mass density [kg/m3]": 994.88
  },
  {
    "molecule": "[Cl-].c1ccc([P+](c2ccccc2)(c2ccccc2)c2ccccc2)cc1 [tetraphenylphosphonium chloride] + CC#N",
    "mass density [kg/m3]": 765.22
  },
  {
    "molecule": "[Cl-].c1ccc([P+](c2ccccc2)(c2ccccc2)c2ccccc2)cc1 [tetraphenylphosphonium chloride] + CO",
    "mass density [kg/m3]": 778.81
  },
  {
    "molecule": "[Cl-].c1ccc([P+](c2ccccc2)(c2ccccc2)c2ccccc2)cc1 [tetraphenylphosphonium chloride] + CCO",
    "mass density [kg/m3]": 775.16
  }
]

====

Assay: cn = amount concentration of the nth substance listed, in mol/dm3
Details: 314.65 K; 101 kPa; Liquid; c1 = 0.1
Below, each entry is listed with its recorded mass density.
quantityKind: mass density (kg/m3)

[
  {
    "molecule": "[Cl-].c1ccc([P+](c2ccccc2)(c2ccccc2)c2ccccc2)cc1 [tetraphenylphosphonium chloride] + O",
    "valueUnits": "kg/m3",
    "assayResult": 995.93
  },
  {
    "molecule": "[Cl-].c1ccc([P+](c2ccccc2)(c2ccccc2)c2ccccc2)cc1 [tetraphenylphosphonium chloride] + CO",
    "valueUnits": "kg/m3",
    "assayResult": 788.49
  },
  {
    "molecule": "[Cl-].c1ccc([P+](c2ccccc2)(c2ccccc2)c2ccccc2)cc1 [tetraphenylphosphonium chloride] + CCO",
    "valueUnits": "kg/m3",
    "assayResult": 787.77
  },
  {
    "molecule": "[Cl-].c1ccc([P+](c2ccccc2)(c2ccccc2)c2ccccc2)cc1 [tetraphenylphosphonium chloride] + CC#N",
    "valueUnits": "kg/m3",
    "assayResult": 777.19
  }
]

Measured values drawn from the NIST ThermoML archive (doi:10.1016/j.fluid.2010.03.017) for this set.
